target: human μ opioid receptor (Homo sapiens); construct: expressed in transfected cells; assay: biochemical; type: binding; settings: read-out: [3H]DAMGO (μ)
measurementLabel: Ki (nM)

>  <compound>
CC1[C@@H]2Cc3ccc(C(=O)NCCc4ccc(Cc5ccccc5)cc4)cc3[C@@]1(C)CCN2CC1CC1 (mixture of isomers)

>  <targetDesc>
human μ opioid receptor (Homo sapiens)

>  <measurementLabel>
Ki

>  <testResult>
0.23

$$$$
>  <compound>
C[C@H]1C2Cc3ccc(C(=O)NCCc4ccc(-c5ccc(Cl)cc5)cc4)cc3[C@@]1(C)CCN2CC1CC1

>  <targetDesc>
human μ opioid receptor (Homo sapiens)

>  <measurementLabel>
Ki

>  <testResult>
0.2

$$$$
>  <compound>
CC1[C@@H]2Cc3ccc(C(=O)NCCCc4ccc5ccccc5c4)cc3[C@@]1(C)CCN2CC1CC1 (mixture of isomers) [Example 38]

>  <targetDesc>
human μ opioid receptor (Homo sapiens)

>  <measurementLabel>
Ki

>  <testResult>
1.9

$$$$
>  <compound>
CC1[C@@H]2Cc3ccc(C(=O)NCCCc4ccccc4)cc3[C@@]1(C)CCN2CC1CC1 (mixture of isomers)

>  <targetDesc>
human μ opioid receptor (Homo sapiens)

>  <measurementLabel>
Ki

>  <testResult>
2.5

$$$$

###

molecular target: human μ opioid receptor (Homo sapiens); construct: expressed in transfected cells; test: biochemical; type: binding; conditions: read-out: [3H]DAMGO (μ)
pKi: −log10 of the molar value.

>  <molecule>
CC1[C@@H]2Cc3ccc(C(=O)NCCc4cccc(Oc5ccccc5)c4)cc3[C@@]1(C)CCN2CC1CC1 (mixture of isomers) [Example 34]

>  <pKi>
9.27

$$$$
>  <molecule>
CC1[C@@H]2Cc3ccc(C(=O)NCCc4ccccc4Br)cc3[C@@]1(C)CCN2CC1CC1 (mixture of isomers) [Example 52]

>  <pKi>
8.40

$$$$
>  <molecule>
CC1[C@@H]2Cc3ccc(C(=O)NCCc4cccc(Br)c4)cc3[C@@]1(C)CCN2CC1CC1 (mixture of isomers) [Example 30]

>  <pKi>
9.46

$$$$
>  <molecule>
CC1[C@@H]2Cc3ccc(C(=O)NCCc4ccccc4-c4ccccc4)cc3[C@@]1(C)CCN2CC1CC1 (mixture of isomers) [Example 26]

>  <pKi>
8.17

$$$$
>  <molecule>
CC1[C@@H]2Cc3ccc(C(=O)NCCc4ccc5ccccc5c4)cc3[C@@]1(C)CCN2CC1CC1 (mixture of isomers) [Example 37]

>  <pKi>
9.74

$$$$
>  <molecule>
Cc1ccc(-c2ccc(CCNC(=O)c3ccc4c(c3)[C@@]3(C)CCN(CC5CC5)C(C4)[C@@H]3C)cc2)cc1 [Example 51]

>  <pKi>
9.54

$$$$
>  <molecule>
CC1[C@@H]2Cc3ccc(C(=O)NCCc4cccc(-c5ccccc5)c4)cc3[C@@]1(C)CCN2CC1CC1 (mixture of isomers) [Example 25]

>  <pKi>
9.02

$$$$
>  <molecule>
COc1ccc(-c2ccc(CCNC(=O)c3ccc4c(c3)[C@@]3(C)CCN(CC5CC5)C(C4)[C@@H]3C)cc2)cc1 [Example 48]

>  <pKi>
10.08

$$$$
>  <molecule>
CC1[C@@H]2Cc3ccc(C(=O)NCCCc4ccc5ccccc5c4)cc3[C@@]1(C)CCN2CC1CC1 (mixture of isomers) [Example 41]

>  <pKi>
8.62

$$$$
>  <molecule>
CC1[C@@H]2Cc3ccc(C(=O)NCCc4ccccc4Oc4ccccc4)cc3[C@@]1(C)CCN2CC1CC1 (mixture of isomers) [Example 35]

>  <pKi>
9.20

$$$$
>  <molecule>
CC1[C@@H]2Cc3ccc(C(=O)NCCc4ccc(Oc5ccccc5)cc4)cc3[C@@]1(C)CCN2CC1CC1 (mixture of isomers) [Example 33]

>  <pKi>
10.23

$$$$
>  <molecule>
CC1[C@@H]2Cc3ccc(C(=O)NCCc4ccc(Br)cc4)cc3[C@@]1(C)CCN2CC1CC1 (mixture of isomers) [Example 29]

>  <pKi>
8.62

$$$$
>  <molecule>
CC1[C@@H]2Cc3ccc(C(=O)NCCc4cccc5ccccc45)cc3[C@@]1(C)CCN2CC1CC1 (mixture of isomers) [Example 40]

>  <pKi>
8.38

$$$$
>  <molecule>
CC1[C@@H]2Cc3ccc(C(=O)NCCc4ccccc4)cc3[C@@]1(C)CCN2CC1CC1 (mixture of isomers) [Example 11]

>  <pKi>
8.46

$$$$

###

target: human μ opioid receptor (Homo sapiens, UniProt P35372); construct: expressed in transfected cells; assay: biochemical; format: binding; settings: [3H]DAMGO (μ)
Sequence (P35372 whole entry): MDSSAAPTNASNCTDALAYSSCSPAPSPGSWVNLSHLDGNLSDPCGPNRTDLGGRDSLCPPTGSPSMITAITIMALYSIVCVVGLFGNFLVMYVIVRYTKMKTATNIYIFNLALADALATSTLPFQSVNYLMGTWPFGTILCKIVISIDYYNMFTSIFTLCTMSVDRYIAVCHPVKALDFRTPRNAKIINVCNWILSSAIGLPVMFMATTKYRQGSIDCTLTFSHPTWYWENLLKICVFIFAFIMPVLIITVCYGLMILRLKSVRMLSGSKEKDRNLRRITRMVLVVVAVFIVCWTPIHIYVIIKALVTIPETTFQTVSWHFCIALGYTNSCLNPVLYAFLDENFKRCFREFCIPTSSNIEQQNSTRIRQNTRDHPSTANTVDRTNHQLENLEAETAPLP
Recorded measurements of Ki, one per entry
measurementLabel: Ki

>  <compound>
CC(NC(=O)c1ccc2c(c1)C1(C)CCN(CC3CC3)C(C2)C1C)c1ccccc1 (single isomer, unassigned) [Example 67]

>  <testResult>
28 nM

$$$$
>  <compound>
CC1C2Cc3ccc(C(=O)NCCCCCc4ccccc4)cc3C1(C)CCN2CC1CC1 (racemic) [Example 61]

>  <testResult>
1.7 nM

$$$$
>  <compound>
CC(NC(=O)c1ccc2c(c1)C1(C)CCN(CC3CC3)C(C2)C1C)c1ccccc1 (single isomer, unassigned) [Example 68]

>  <testResult>
62 nM

$$$$
>  <compound>
CC(CNC(=O)c1ccc2c(c1)[C@@]1(C)CCN(CC3CC3)C(C2)[C@@H]1C)c1ccc(-c2ccccc2)cc1 (stereo partly shown) [Example 46]

>  <testResult>
18 nM

$$$$
>  <compound>
CC1C2Cc3ccc(C(=O)NCCc4cccnc4)cc3C1(C)CCN2CC1CC1 (racemic) [Example 69]

>  <testResult>
120 nM

$$$$
>  <compound>
C[C@H]1C2Cc3ccc(C(=O)NCCCCc4ccccc4)cc3[C@@]1(C)CCN2CC1CC1 [Example 60]

>  <testResult>
4.3 nM

$$$$
>  <compound>
CC1C2C(=O)c3ccc(C(=O)NCCc4ccc(-c5ccccc5)cc4)cc3C1(C)CCN2CC1CC1 (stereo not shown) [Example 20]

>  <testResult>
3.1 nM

$$$$
>  <compound>
C[C@H]1C2Cc3ccc(C(=O)NCCc4ccc(-c5cccc(Cl)c5)cc4)cc3[C@@]1(C)CCN2CC1CC1 [Example 50]

>  <testResult>
0.56 nM

$$$$
>  <compound>
CC[C@@]12CCN(CC3CC3)C(C(=O)c3ccc(C(=O)NCCc4ccc(-c5ccccc5)cc4)cc31)[C@@H]2C (mixture of isomers) [Example 21]

>  <testResult>
4.9 nM

$$$$
>  <compound>
C[C@H]1C2Cc3ccc(C(=O)NCCc4ccc(C(=O)NCCc5ccc(Br)cc5)cc4)cc3[C@@]1(C)CCN2CC1CC1 [Example 53]

>  <testResult>
1.5 nM

$$$$
>  <compound>
O=C1CC[C@@]2(O)[C@H]3Cc4ccc(C(=O)NCCc5ccc(-c6ccccc6)cc5)c(O)c4[C@@]2(CCN3CC2CC2)C1 [Example 81, Q-naltrexone ring opened]

>  <testResult>
0.71 nM

$$$$
>  <compound>
O=C(NCCc1ccc(-c2ccccc2)cc1)c1ccc2c3c1OC1C(=O)CCC4(O)C(C2)N(CC2CC2)CCC314 (single isomer, unassigned; (-)) [Example 71, (−)-Q-naltrexone]

>  <testResult>
1.4 nM

$$$$
>  <compound>
O=C(NCCc1ccc(-c2ccccc2)cc1)c1ccc2c(c1)[C@@]13CCCC[C@@]1(O)[C@@H](C2)N(CC1CCC1)CC3 [Example 79, (−)-Q-butorphanol]

>  <testResult>
0.32 nM

$$$$

meta.source: patent US8026252B2
